Reference for the values: paper PMC4072508

In this section, each of the binders is paired with its reported SPOT signal as a fraction of Bim BH3's signal on the same receptor and array.
- MEASURED_TARGET: Bcl-xL, Q07817
- Sequence (Q07817 1-209): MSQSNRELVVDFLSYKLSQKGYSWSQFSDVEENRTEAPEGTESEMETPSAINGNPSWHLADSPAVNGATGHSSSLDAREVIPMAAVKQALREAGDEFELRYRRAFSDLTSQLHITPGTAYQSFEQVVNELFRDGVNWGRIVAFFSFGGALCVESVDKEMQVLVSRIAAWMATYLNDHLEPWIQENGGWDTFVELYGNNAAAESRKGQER
- ASSAY_DETAILS: peptide SPOT array, c-Myc-tagged receptor at 1 uM or 100 nM, anti-c-Myc-Cy3
MEASURED_ENDPOINT: SPOT signal as a fraction of Bim BH3's signal on the same receptor and array

# BINDER, DATA_VALUE
data = [
    ("APEEDFFSIHIRIVLDWTEGLFNACG [CYBB]", 0.06),
    ("VEQFSEASQQMAELSEVLVLRLENYE [HAP1]", 0.02),
    ("SGLPGLSSVDINNFLDSINESEGIPL [MKI67]", 0.11),
    ("RYPILENPEILRKTLDDFLNRIALTD [CCNH]", 0.02),
]
